Numbers sourced from FireProtDB (doi:10.1021/bi0525223).

B1: Protein P-30, P22069 (parent)
chain: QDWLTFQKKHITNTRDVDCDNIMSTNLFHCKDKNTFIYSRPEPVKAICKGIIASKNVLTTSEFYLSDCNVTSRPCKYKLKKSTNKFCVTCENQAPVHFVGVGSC

Variants of: B1
Experimental conditions: Lithobates pipiens; pH 5.5; Thermal; DSC; sodium acetate 100 mM; reversible: Yes; structure 1ONC; whole UniProt chain shown
Attribute measured: change of melting temperature, mutant - wild type (higher = more stable) (°C)
Record the value in °C, omitting the unit from your answer.

Past entries and their recorded results:
F28T | -11.1
C87A C104A | -19.1
F36Y | -9.3

Here is the next item to consider.
Please indicate change of melting temperature, mutant - wild type (higher = more stable) recorded for F28A
-10.4
